System: ROS1
Details: concentration: 1 μM, replicates: in singlicate; n = 1;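 note: KINOMEscan kinase panel screen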
Parameter: %Inh. Scope: all listed entries.
RECORDED ENDPOINT: %Inh (%)

> print(dat)
                                    compound  system.under.test  numeric.readout
 1  COc1cc2ncn(-c3cc(OCc4ccc(S(C)(=O)=O)cc4)c(C(N)=O)s3)c2cc1OC [GW869979]               ROS1                0
 2  O=C1NC(=O)C(c2ccccc2)=C1Nc1cccc(O)c1 [SB-390534]               ROS1               24
 3        CCc1nc(-c2cccc(C)c2)c(-c2ccncc2)s1               ROS1               11
 4  CN(C)c1cc(-c2ccc3c(N)n[nH]c3c2)nc(N)n1 [GSK2219329]               ROS1               10
 5  CCC(=O)c1c(-c2ccccc2)c2cc(Cl)ccc2c(=O)n1Cc1cc(S(C)(=O)=O)n(CC(N)=O)n1               ROS1                0
 6  CCC(=O)c1c(-c2ccccc2)c2cc(Cl)ccc2c(=O)n1Cc1cc(S(C)(=O)=O)n(CCC(C)(C)O)n1               ROS1               14
 7  Nc1nc(-c2ccccc2F)c(-c2ccnc3ccccc23)s1 [GW560459]               ROS1                4
 8  COc1cccc(C2=C(Nc3cccc(C(=O)O)c3)C(=O)NC2=O)c1 [SB-390770]               ROS1               32
 9  O=C(Nc1n[nH]c2nc(-c3ccccc3)c(Cl)cc12)C1CC1 [SB-734909]               ROS1                0
10  COc1ccc(-c2cc3c(C)nc(N)nc3n([C@H]3CC[C@H](O)CC3)c2=O)cn1               ROS1                0
11  CC(C)(C)c1ccc(C(=O)Nc2cn3cc(-c4ccccc4)ccc3n2)cc1               ROS1                0
12  Cc1nn2c(=O)cc(N3CCOCC3)nc2n1Cc1cccc(Cl)c1Cl [GSK2342769]               ROS1                0
13  CN1C(=O)C(Nc2ccccc2)=C(c2ccccc2)C1=O [SB-300079]               ROS1                0
14  CCn1c(-c2nonc2N)nc2ccccc21 [SB-693162/GW549034]               ROS1                0
15    Nc1ncnc2c1ncn2-c1cccc(F)c1 [SKF-97560]               ROS1                4
16  COc1ccc(Nc2nccc(N3CCC(NS(=O)(=O)c4ccc(NC(C)=O)cc4)C3)n2)cc1 (stereo not shown) [GSK1379729]               ROS1                3
17  Nc1n[nH]c2ncc(-c3ccccc3)cc12 [SB-517081]               ROS1                0
18  COc1cc2ncn(-c3cc(OCc4ccncc4Br)c(C(N)=O)s3)c2cc1OC [GW854278]               ROS1                6
19      Nc1ncnc2c1ncn2-c1ccc(Cl)cc1 [AH2635]               ROS1               23
20  COC(=O)c1c(-c2ccccc2)c2cc(C)ccc2c(=O)n1Cc1ccccc1               ROS1                0
21     CCn1c(-c2ccoc2)nc2cnccc21 [SB-733887]               ROS1                0
22  Cc1nnc(-c2ccc3ncn(-c4ccc(S(C)=O)cc4)c3c2)o1 (stereo not shown)               ROS1                0
23  COc1cccc(-n2cnc3c(N)ncnc32)c1 [SKF-97416]               ROS1                0
24  COc1cc2ncn(-c3cc(OCc4ccncc4)c(C(N)=O)s3)c2cc1OC [GSK336313]               ROS1               28
25  COc1cc(Nc2nccc(N3CCC(NC(=O)C4COc5ccccc5O4)C3)n2)cc(OC)c1OC (stereo not shown) [GSK1379761]               ROS1               54
26  Cc1nnc(-c2ccc(C)c(-c3ccc(C(=O)O)cc3)c2)o1 [GW608005]               ROS1                0
27     CCCNC(=O)Nc1ccc(Oc2ncnc3ccn(C)c23)cc1               ROS1                0
28  CCCC(=O)Nc1n[nH]c2ncc(-c3cccc4ccccc34)cc12 [SB-642057]               ROS1                0
29  COc1cc(OC)cc(-c2cc3cnc(N)nc3nc2NC(=O)NC(C)(C)C)c1               ROS1                0
30  CCc1ccc(-c2ccc3c(c2)-c2nn(C)cc2S(=O)(=O)N3C)cc1               ROS1                0
31  Nc1nccc2scc(-c3ccc4c(c3)CCN4C(=O)Cc3ccccc3)c12 [GSK2576924]               ROS1               18
32  FC(F)(F)c1ccc(-c2ncn(CCCN3CCOCC3)c2-c2ccncc2)cc1 [SB-217780]               ROS1                0
33  Cn1c(=O)c(F)c(Nc2ccc(I)cc2F)c2c(=O)n(OC[C@H](O)CO)cnc21               ROS1                0
34  Nc1n[nH]c2nnc(-c3ccccc3)c(-c3ccccc3)c12 [GW554060]               ROS1               14

###

Test system: LATS1
Conditions: concentration: 1 μM, replicates: in singlicate; n = 1
RECORDED ENDPOINT: %Inh (%)

> print(dat)
                                    compound  numeric.readout
 1  Cl.c1ccc(Cn2cnc3cc(Nc4ncnc5ccccc45)ccc32)cc1                0
 2  Cc1nnc(-c2ccc3ncn(-c4ccc(S(C)=O)cc4)c3c2)o1 (stereo not shown)               43
 3  O=c1cc(N2CCOCC2)nc2n(Cc3ccc(F)c(Cl)c3)ccn12                4
 4        CCc1nc(-c2cccc(C)c2)c(-c2ccncc2)s1                4
 5  COc1ccc(-c2coc3ccc(-c4nnc(SCc5cccc(C#N)c5)o4)cc23)cc1               29
 6  Nc1nccc2scc(-c3ccc4c(c3)CCN4C(=O)Cc3ccccc3)c12                0
 7  Cl.NS(=O)(=O)c1cccc(Nc2cc(-c3ccc(F)cc3)n[nH]2)c1                0
 8           Nc1nc(N)c2nc(-c3ccccc3)[nH]c2n1                0
 9  Cc1nc(N(C)[C@H]2CN(C(=O)CC#N)CC[C@H]2C)c2cc[nH]c2n1                7
10  Cn1c(=O)c(F)c(Nc2ccc(I)cc2F)c2c(=O)n(OC[C@H](O)CO)cnc21               18
11  COc1ccc(CNC(=O)NC2CCN(c3ccnc(Nc4ccc(F)cc4)n3)C2)cc1 (stereo not shown)               22
12  COC(=O)c1c(-c2ccccc2)c2cc(C)ccc2c(=O)n1Cc1ccccc1                0
13      O=C1NC(=O)C(c2ccccc2)=C1Nc1cccc(O)c1               21
14  COc1cc(OC)cc(-c2cc3cnc(N)nc3nc2NC(=O)NC(C)(C)C)c1                0
15    Fc1cccc(CSc2nnc(-c3ccc4c(c3)CCO4)o2)c1               20
16  COc1cc(Nc2ccnc3ccc(C(F)(F)F)cc23)cc(OC)c1OC                0

###

System: PRP4
Settings: concentration: 1 μM, replicates: in singlicate; n = 1
Parameter: %Inh. Scope: all listed entries.
RECORDED ENDPOINT: %Inh

> print(dat)
                                   compound  recorded.endpoint  result
1  COc1cc(Nc2nccc(N3CCC(NC(=O)C(C)c4ccc(Cl)cc4)C3)n2)cc(OC)c1OC (stereo not drawn)               %Inh     23%
2  Cc1ccc(-c2ccc3c(ccc4sc5c(c43)NC[C@@H](C)N=C5N(C)C)n2)cn1               %Inh      0%
3    Fc1cccc(CSc2nnc(-c3ccc4c(c3)CCO4)o2)c1               %Inh      0%
4  Cc1nn2c(=O)cc(N3CCOCC3)nc2n1Cc1cccc(Cl)c1Cl               %Inh     15%
5  COc1cccc(C2=C(Nc3cccc(C(=O)O)c3)C(=O)NC2=O)c1               %Inh     49%
6  CCC(=O)c1c(-c2ccccc2)c2cc(Cl)ccc2c(=O)n1Cc1ccc(C(=O)O)cc1               %Inh      0%
